# System under test: Adenosine receptor A1 (Homo sapiens, UniProt P30542)
# Sequence (P30542 whole entry): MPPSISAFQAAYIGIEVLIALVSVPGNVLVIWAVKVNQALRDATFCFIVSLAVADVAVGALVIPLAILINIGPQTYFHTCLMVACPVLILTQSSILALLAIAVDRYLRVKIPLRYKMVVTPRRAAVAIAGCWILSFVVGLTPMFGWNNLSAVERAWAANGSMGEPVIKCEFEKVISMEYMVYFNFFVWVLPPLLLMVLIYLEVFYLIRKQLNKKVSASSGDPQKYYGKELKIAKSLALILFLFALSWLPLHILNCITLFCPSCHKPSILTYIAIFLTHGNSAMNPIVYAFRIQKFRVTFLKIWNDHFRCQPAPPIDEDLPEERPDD
# Assay method text: Displacement of [3H]CCPA from recombinant human adenosine A1 receptor expressed in CHO cell membrane after 3 hrs by microbeta scintillation counting method
pKi: −log10 of the molar value.
Measure name: pKi

Completed entries (count: 3):
In [3]: df
Out[3]:
                                 mol_smiles  measure_name  endpoint_value
0  COc1cc(Nc2nc3c(N4CCC[C@H]4CO)ncnc3s2)cc(OC)c1OC           pKi            6.01
1           O=C(Nc1nc2c(Cl)ncnc2s1)c1ccccc1           pKi            5.14
2   CN1CCN(c2ncnc3sc(Nc4ccc(Cl)cc4)nc23)CC1           pKi          < 4.00

QUERY: Given the compound `S=C(NCc1ccccc1)N(Cc1ccccc1)c1nc2c(Cl)ncnc2s1` , what is its reported pKi?
RESULT: < 4.52

QUERY: Given the compound `COc1ccc(Nc2nc3c(N4CCC[C@H]4CO)ncnc3s2)cc1` , what is its reported pKi?
RESULT: 6.15

QUERY: Given the compound `CN(C)c1ncnc2sc(Nc3ccccc3)nc12` , what is its reported pKi?
RESULT: < 4.00

QUERY: Given the compound `OC[C@@H]1CCCN1c1ncnc2sc(Nc3ccccc3)nc12` , what is its reported pKi?
RESULT: 6.26

###

# System under test: Adenosine receptor A2a (Homo sapiens)
# Sequence (P29274 whole entry): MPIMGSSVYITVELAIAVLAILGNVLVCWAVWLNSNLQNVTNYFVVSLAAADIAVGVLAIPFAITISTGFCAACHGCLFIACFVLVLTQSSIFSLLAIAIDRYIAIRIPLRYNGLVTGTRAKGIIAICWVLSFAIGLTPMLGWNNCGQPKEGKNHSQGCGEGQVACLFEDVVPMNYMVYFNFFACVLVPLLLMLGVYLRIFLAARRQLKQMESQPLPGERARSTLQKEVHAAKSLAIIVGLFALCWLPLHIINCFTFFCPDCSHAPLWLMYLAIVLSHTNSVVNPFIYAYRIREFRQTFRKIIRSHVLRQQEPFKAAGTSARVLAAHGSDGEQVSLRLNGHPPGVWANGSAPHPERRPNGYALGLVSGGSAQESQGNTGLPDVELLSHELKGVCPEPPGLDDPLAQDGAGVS
# Assay method text: Displacement of [3H]NECA from recombinant human adenosine A2A receptor expressed in CHO cell membrane after 3 hrs by microbeta scintillation counting method
Measure name: Ki (µM)
Reply numerically in µM, unit not repeated.

Completed entries (count: 3):
>>> print(df.to_string())
                            mol_smiles  measure_name  unit_name  endpoint_value
0   c1ccc(Nc2nc3c(N4CCNCC4)ncnc3s2)cc1            Ki         µM            9.09
1   c1ccc(Nc2nc3c(N4CCOCC4)ncnc3s2)cc1            Ki         µM           0.333
2  Clc1ccc(Nc2nc3c(N4CCCC4)ncnc3s2)cc1            Ki         µM            2.06

QUERY: Given the molecule `CN(C)c1ncnc2sc(Nc3ccccc3)nc12` , what is its reported Ki?
RESULT: 1.27

QUERY: Given the molecule `c1ccc(Nc2nc3c(N4CCCC4)ncnc3s2)cc1` , what is its reported Ki?
RESULT: 0.351

QUERY: Given the molecule `OC[C@@H]1CCCN1c1ncnc2sc(Nc3ccccc3)nc12` , what is its reported Ki?
RESULT: 0.2

QUERY: Given the molecule `OC[C@@H]1CCCN1c1ncnc2sc(Nc3ccc(Cl)cc3)nc12` , what is its reported Ki?
RESULT: 0.466

QUERY: Given the molecule `Clc1ccc(Nc2nc3c(Cl)ncnc3s2)cc1` , what is its reported Ki?
RESULT: 2.69

QUERY: Given the molecule `COc1cc(Nc2nc3c(Cl)ncnc3s2)cc(OC)c1OC` , what is its reported Ki?
RESULT: 1.05

QUERY: Given the molecule `OC[C@@H]1CCCN1c1ncnc2sc(Nc3cccc(Br)c3)nc12` , what is its reported Ki?
RESULT: 0.153

QUERY: Given the molecule `Clc1ncnc2sc(Nc3cccc(Br)c3)nc12` , what is its reported Ki?
RESULT: 2.96

QUERY: Given the molecule `Clc1ccc(Nc2nc3c(N4CCCCC4)ncnc3s2)cc1` , what is its reported Ki?
RESULT: 13.2

###

# Assay method text: Thermodynamic equilibrium solubility of compound in phosphate buffered saline at 1 to 300 ug after overnight incubation by microplate reader analysis
# Assay type: physicochemical
# Condition details: read-out: Therm_solubility
Measure name: solubility thermodynamic (µg/mL)
Reply numerically in µg/mL, unit not repeated.

QUERY: Given the compound `OC[C@@H]1CCCN1c1ncnc2sc(Nc3ccccc3)nc12` , what is its reported solubility thermodynamic?
RESULT: 4800

###

Listed here: compounds with reported Ki for UniProtKB P0DMS8.
Reply numerically in µM, unit not repeated.

                            mol_smiles  system_under_test  endpoint_value
0  Clc1ccc(Nc2nc3c(N4CCCC4)ncnc3s2)cc1   UniProtKB P0DMS8            4.26
1  CN1CCN(c2ncnc3sc(Nc4ccccc4)nc23)CC1   UniProtKB P0DMS8            4.31
2   c1ccc(Nc2nc3c(N4CCOCC4)ncnc3s2)cc1   UniProtKB P0DMS8            4.46

QUERY: Given the compound `Fc1cccc(F)c1Nc1nc2c(Cl)ncnc2s1` , what is its reported Ki?
RESULT: 17.2

###

# Assay method text: Thermodynamic equilibrium solubility of compound in water at 1 to 300 ug after overnight incubation by microplate reader analysis
# Format: physicochemical
# Condition details: read-out: Therm_solubility
Measure name: solubility thermodynamic

Completed entries (count: 3):
>>> df
                                 mol_smiles  endpoint_value
0        Cc1ccc(Nc2nc3c(N4CCCC4)ncnc3s2)cc1     > 150 µg/mL
1       Brc1cccc(Nc2nc3c(N4CCCC4)ncnc3s2)c1     > 150 µg/mL
2  OC[C@@H]1CCCN1c1ncnc2sc(Nc3cccc(Br)c3)nc12       160 µg/mL

Next molecule, solubility thermodynamic to be filled in.
QUERY: Given the molecule `OC[C@@H]1CCCN1c1ncnc2sc(Nc3ccccc3)nc12` , what is its reported solubility thermodynamic?
RESULT: 4300 µg/mL

###

# System under test: Adenosine receptor A1 (Homo sapiens, UniProt P30542)
# Assay method text: Displacement of [3H]CCPA from recombinant human adenosine A1 receptor expressed in CHO cell membrane after 3 hrs by microbeta scintillation counting method
Measure name: Ki

Completed entries (count: 6):
In [3]: df
Out[3]:
                                 mol_smiles  endpoint_value
0            COc1ccc(Nc2nc3c(Cl)ncnc3s2)cc1         11.5 µM
1       CCN(CC)c1ncnc2sc(Nc3ccc(Cl)cc3)nc12         16.5 µM
2         c1ccc(Nc2nc3c(N4CCCC4)ncnc3s2)cc1         > 30 µM
3       CN1CCN(c2ncnc3sc(Nc4ccccc4)nc23)CC1         > 30 µM
4  O=[N+]([O-])c1ccc(Nc2nc3c(Cl)ncnc3s2)cc1         > 30 µM
5        Cc1ccc(Nc2nc3c(N4CCCC4)ncnc3s2)cc1        > 100 µM

Next molecule, Ki to be filled in.
QUERY: Given the molecule `OC[C@@H]1CCCN1c1ncnc2sc(Nc3ccc(Cl)cc3)nc12` , what is its reported Ki?
RESULT: 0.629 µM

###

# System: CHO
# Assay method text: Selectivity ratio of Ki for recombinant human adenosine A1 receptor expressed in CHO cell membrane to Ki for recombinant human adenosine A2A receptor expressed in CHO cell membrane
# Format: cell-based
Measure name: Ratio Ki
Lab note: record the figure alone, no unit after it.

>>> print(df.to_string())
                                 mol_smiles  endpoint_value
0  OC[C@@H]1CCCN1c1ncnc2sc(Nc3cccc(Br)c3)nc12               3

Next compound, Ratio Ki to be filled in.
QUERY: Given the compound `OC[C@@H]1CCCN1c1ncnc2sc(Nc3ccccc3)nc12` , what is its reported Ratio Ki?
RESULT: 3

###

Listed here: compounds with reported Ki for Adenosine receptor A3 (Homo sapiens, UniProt P0DMS8).
Reply numerically in nM, unit not repeated.

                                 mol_smiles  measure_name  endpoint_value
0  O=[N+]([O-])c1ccc(Nc2nc3c(Cl)ncnc3s2)cc1            Ki            7950
1      Clc1ccc(Nc2nc3c(N4CCCCC4)ncnc3s2)cc1            Ki           18300
2  COc1ccc(Nc2nc3c(N4CCC[C@H]4CO)ncnc3s2)cc1            Ki             594
3            Clc1ccc(Nc2nc3c(Cl)ncnc3s2)cc1            Ki            4940
4       Brc1cccc(Nc2nc3c(N4CCCC4)ncnc3s2)c1            Ki            1290
5       CCN(CC)c1ncnc2sc(Nc3ccc(Cl)cc3)nc12            Ki            3890
6  Cc1ccc(Nc2nc3c(N4CCC[C@H]4CO)ncnc3s2)cc1            Ki             843
7        Cc1ccc(Nc2nc3c(N4CCCC4)ncnc3s2)cc1            Ki             563

QUERY: Given the compound `OC[C@@H]1CCCN1c1ncnc2sc(Nc3ccccc3)nc12` , what is its reported Ki?
RESULT: 978

QUERY: Given the compound `Fc1cccc(F)c1Nc1nc2c(N3CCCC3)ncnc2s1` , what is its reported Ki?
RESULT: 3190

QUERY: Given the compound `OC[C@@H]1CCCN1c1ncnc2sc(Nc3ccc(Cl)cc3)nc12` , what is its reported Ki?
RESULT: 934
